Recorded values, source patent US20140377340A1.

# SYSTEM NAME: purified HLA DRB5*0101 (Homo sapiens, UniProt P01903+Q30154)
# Construct: purified from EBV transformed homozygous cell lines or single MHC allele transfected 721.221, C1R, or fibroblast lines; made in house
# TEST DETAILS: HLA-DR radioligand binding inhibition assay, DRB5*0101
# APPLIED CONDITIONS: IC50 nM purified HLA DRB5 *0101, purified HLA DRB5*0101
# Protocol: Instead, wells of an opaque white 96-well Optiplate (Packard) are coated with 3 μg (100 μl@ 30 μg/ml) of HLA-specific antibody (Ab) that “capture” complexes of radiolabeled MHC and unlabeled peptide transferred from the molecular binding assay plate in 100 μl of 0.05% NP40/PBS. […] Captured complexes are then measured on a microplate scintillation and luminescence counter (TopCount NXTTM; Packard). […]
Ends that are not written are not given here.
REPORTED METRIC: IC50

I have this sequence here, ILLVVVLGVVFGILI [Peptide 9019.0068] , and I need its recorded IC50.
> 20000 nM
